The reported measurements were obtained from PubChem BioAssay AID602373.

methodNotes: qHTS Assay for Inhibitors of Bacillus subtilis Sfp phosphopantetheinyl transferase (PPTase): Hepg2 Assay
recordedConditions: HepG2 cytotoxicity counter-screen; series mostly up to 46.1 µM
Inconclusive results are not listed. Active and inactive are the calls of the source. Calls follow the shape of the dose curve; as a rule, active = well fitted inhibition curve with a large enough effect; inconclusive = small, poorly fitted or top-dose-only effect; inactive = no such curve, though single readings can be large or run the other way.
readout: Potency

Examples with their reported Potency follow.
>>> datavalue("Cc1cc(C)nc(NC(=S)N2CCN(c3cccc(S(C)(=O)=O)c3)CC2)c1")
"inactive"
>>> datavalue("Cc1cc(C)nc(NC(=S)N2CCN(c3ccc(C(=O)O)cc3)CC2)c1")
"inactive"
>>> datavalue("CN(C)c1ccc2nc(NC(=S)N3CCN(c4cccc(C(F)(F)F)c4)CC3)sc2c1")
"8.88 µM (active)"
>>> datavalue("Cc1ccnc(NC(=S)N2CCN(c3ccc(N)cc3)CC2)c1")
"inactive"
>>> datavalue("Cc1cc(C)nc(NC(=S)N2CCN(Cc3cccc4ccccc34)CC2)c1")
"inactive"
>>> datavalue("Cc1ccnc(N(C)C(=S)N2CCN(c3cccc(C(F)(F)F)c3)CC2)c1")
"inactive"
>>> datavalue("Cc1cc(C)nc(NC(=C(C#N)C#N)N2CCN(c3cccc(C(F)(F)F)c3)CC2)c1")
"inactive"
>>> datavalue("Cc1cc(C)nc(NC(=S)N2CCN(c3ccsc3)CC2)c1")
"inactive"
>>> datavalue("FC(F)(F)c1cccc(N2CCN(C(=S)Nc3cc(C(F)(F)F)ccn3)CC2)c1")
"19.9 µM (active)"
>>> datavalue("FC(F)(F)c1cccc(N2CCN(C(=S)Nc3cc4ccccc4cn3)CC2)c1")
"inactive"

Notebook: CCN1CCN(C(=S)c2ccc(O)cc2)CC1 , Potency read as inactive

====

methodNotes: qHTS Assay for Inhibitors of Bacillus subtilis Sfp phosphopantetheinyl transferase (PPTase): Hepg2 Assay
recordedConditions: HepG2 cytotoxicity counter-screen; series mostly up to 46.1 µM
Description: The covalent attachment of a phosphopantetheinyl (4'-PP) arm to a variety of synthases and other proteins is a key posttranslational protein modification. […] In search of small molecule Sfp-PPTase inhibitors, a fluorescence quenching assay was developed for detection of Bacillus subtilis Sfp-PPTase enzymatic activity in a miniaturized high-throughput format. […]
Inconclusive results are not listed. Activity calls are given as the source filed them. The call rests on the fitted dose curve; in most records, active means well fitted inhibition curve with a large enough effect; inconclusive means small, poorly fitted or top-dose-only effect; inactive means no such curve, though single readings can be large or run the other way.
Returns: one label drawn from label 1 = active, label 0 = inactive

Input: Check the results log: what was the call for COc1ccnc(NC(=S)N2CCN(c3cccc(Cl)c3Cl)CC2)c1 ?
Output: label 0

Input: Check the results log: what was the call for Cc1cc(C)nc(NC(=S)N2CCN(c3ccc(Cl)c(Cl)c3Cl)CC2)c1 ?
Output: label 0

Input: Check the results log: what was the call for Cc1cc(C)nc(NC(=S)N2CCN(c3nccs3)CC2)c1 ?
Output: label 0

Input: Check the results log: what was the call for Cc1ccnc(NC(=S)NCCN(C)c2cccc(C(F)(F)F)c2)c1 ?
Output: label 0

Input: Check the results log: what was the call for COc1cccc(NC(=S)N2CCN(c3cccc(Cl)c3Cl)CC2)n1 ?
Output: label 0

Input: Check the results log: what was the call for Cc1ccc(N2CCN(C(=S)Nc3cc(C)ccn3)CC2)cc1 ?
Output: label 0

Input: Check the results log: what was the call for Cc1cc(C)nc(NC(=S)N2CCN(c3ccncc3)CC2)c1 ?
Output: label 0

Input: Check the results log: what was the call for Cc1cc(C)nc(NC(=S)N2CCN(c3ccc4nncn4c3)CC2)c1 ?
Output: label 0

Input: Check the results log: what was the call for Cc1cc(C)nc(NC(=S)N2CCN(S(=O)(=O)c3cccc(C(F)(F)F)c3)CC2)c1 ?
Output: label 0

Input: Check the results log: what was the call for Cc1cc(C)nc(NC(=S)N2CCN(c3noc4ccccc34)CC2)c1 ?
Output: label 0

Input: Check the results log: what was the call for Cc1ccnc(NC(=S)N2CCCN(c3cccc(C(F)(F)F)c3)CC2)c1 ?
Output: label 1
